Ref: PubChem BioAssay AID434972

# target.or.test.system: Wee1-like protein kinase (Homo sapiens)
# assay: WEE1-luciferase stabilization in HeLa cells – cell-based, WEE1K328M-luciferase, luminescence, powder samples, SAR follow-up (AID 434972)
# condition.info: HeLa WEE1K328M-luciferase stability, at 0.25 µM, hits give high values
measured.attribute: inhibition of WEE1 degradation (%)
The reply should contain only the number, in %.

>>> df
                            chemical_smiles  unit_abbrev  obs_value
0  O=C(NC1CC1)c1ccc(-c2nc(NCc3nc4ccccc4[nH]3)c3ncn(-c4ccsc4)c3n2)cc1            %        3.6

Reported inhibition of WEE1 degradation of `c1ccc2[nH]c(CNc3nc(Nc4cnccn4)nc4c3ncn4-c3ccsc3)nc2c1` : 2.9

Looking up `CC(C)n1cnc2c(NCc3nc4c([N+](=O)[O-])cccc4[nH]3)nc(N3CCOCC3)nc21` , I see its inhibition of WEE1 degradation listed as 111

Reported inhibition of WEE1 degradation for `CC(C)n1cnc2c(NCc3nc4ccccc4[nH]3)nc(Nc3ccncn3)nc21` was 4

Item: `NCCN1CCN(c2nc(NCc3nc4ccccc4[nH]3)c3ncn(-c4ccsc4)c3n2)CC1` | inhibition of WEE1 degradation: 8.6

The value of inhibition of WEE1 degradation measured for the compound `c1ccc2c(c1)CCN2c1nc(NCc2nc3ccccc3[nH]2)c2ncn(-c3ccsc3)c2n1` turned out to be 7.9

Data point: `c1ccc2[nH]c(CNc3nc(N4CCCCC4)nc4c3ncn4-c3ccsc3)nc2c1` ; inhibition of WEE1 degradation = 10.5

Short answer for `c1ccc(N2CCN(c3nc(NCc4nc5ccccc5[nH]4)c4ncn(-c5ccsc5)c4n3)CC2)nc1` : inhibition of WEE1 degradation was 4

inhibition of WEE1 degradation reported for this compound `CN1CCN(c2nc(NCc3nc4ccccc4[nH]3)c3ncn(-c4ccsc4)c3n2)CC1` : 14.1

----------
# target.or.test.system: Wee1-like protein kinase (Homo sapiens)
# assay: WEE1-luciferase stabilization in HeLa cells – cell-based, WEE1K328M-luciferase, luminescence, powder samples, SAR follow-up (AID 434972)
# condition.info: HeLa WEE1K328M-luciferase stability, at 0.25 µM
Active and inactive are the calls of the source.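 Rule for the calls: active = inhibition of WEE1 degradation of at least 19%, seen as raised luminescence; inactive = the rest.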
Can you answer with just one of these options? yes (1) for active, no (0) for inactive

Observe how each entry below is paired with its result.
In [3]: df
Out[3]:
                            chemical_smiles    class
0  FC(F)(F)c1cccc2[nH]c(CNc3nc(N4CCOCC4)nc4c3ncn4-c3ccsc3)nc12   no (0)
1  CCOC(=O)c1cccc2[nH]c(CNc3nc(N4CCOCC4)nc4c3ncn4-c3ccsc3)nc12  yes (1)
2  c1ccc2[nH]c(CNc3nc(N4CCSCC4)nc4c3ncn4-c3ccsc3)nc2c1   no (0)

Record lookup: outcome of this test for `c1ccc2[nH]c(CNc3nc(N4CCCC4)nc4c3ncn4-c3ccsc3)nc2c1` ?
no (0)

What outcome does the record of this test show for `Fc1ccc2nc(CNc3nc(N4CCOCC4)nc4c3ncn4-c3ccsc3)[nH]c2c1` ?
yes (1)

Test call for this compound, please: `FC(F)(F)c1ccc2nc(CNc3nc(N4CCOCC4)nc4c3ncn4-c3ccsc3)[nH]c2c1`
yes (1)

----------
# target.or.test.system: Wee1-like protein kinase (Homo sapiens)
# assay: WEE1-luciferase stabilization in HeLa cells – cell-based, WEE1K328M-luciferase, luminescence, powder samples, SAR follow-up (AID 434972)
# condition.info: HeLa WEE1K328M-luciferase stability, at 0.25 µM, hits give high values
If the reported inhibition of WEE1 degradation equals or exceeds 20%, assign condition met. If not, assign condition not met.

Solved entries (count: 5):
In [3]: df
Out[3]:
                            chemical_smiles              class
0  CC(C)n1cnc2c(NCc3nc4ccccc4[nH]3)nc(Nc3cnccn3)nc21  condition not met
1  Clc1ccc2nc(CNc3nc(N4CCOCC4)nc4c3ncn4-c3ccsc3)[nH]c2c1      condition met
2  Nc1ccc2nc(CNc3nc(N4CCOCC4)nc4c3ncn4-c3ccsc3)[nH]c2c1  condition not met
3  COc1ccc2nc(CNc3nc(N4CCOCC4)nc4c3ncn4-c3ccsc3)[nH]c2c1      condition met
4  Nc1cccc2[nH]c(CNc3nc(N4CCOCC4)nc4c3ncn4-c3ccsc3)nc12  condition not met

Does inhibition of WEE1 degradation meet or surpass 20% for `CC(C)n1cnc2c(NCc3nc4ccccc4[nH]3)nc(Nc3cccnc3)nc21` ?
condition not met

Reported inhibition of WEE1 degradation at or above 20%? `O=[N+]([O-])c1ccc2nc(CNc3nc(N4CCOCC4)nc4c3ncn4-c3ccsc3)[nH]c2c1`
condition not met

Textbook exercise: given the entry `c1ccc2[nH]c(CNc3nc(N4CCNCC4)nc4c3ncn4-c3ccsc3)nc2c1` , state whether its inhibition of WEE1 degradation is greater than or equal to 20%.
condition not met

Hello, I need to know if `CCOC(=O)c1cccc2[nH]c(CNc3nc(N4CCOCC4)nc4c3ncn4C(C)C)nc12` has measured inhibition of WEE1 degradation not below 20%. Thanks!
condition not met

----------
# target.or.test.system: Wee1-like protein kinase (Homo sapiens) (UniProt P30291)
# Sequence (P30291 whole entry K328M): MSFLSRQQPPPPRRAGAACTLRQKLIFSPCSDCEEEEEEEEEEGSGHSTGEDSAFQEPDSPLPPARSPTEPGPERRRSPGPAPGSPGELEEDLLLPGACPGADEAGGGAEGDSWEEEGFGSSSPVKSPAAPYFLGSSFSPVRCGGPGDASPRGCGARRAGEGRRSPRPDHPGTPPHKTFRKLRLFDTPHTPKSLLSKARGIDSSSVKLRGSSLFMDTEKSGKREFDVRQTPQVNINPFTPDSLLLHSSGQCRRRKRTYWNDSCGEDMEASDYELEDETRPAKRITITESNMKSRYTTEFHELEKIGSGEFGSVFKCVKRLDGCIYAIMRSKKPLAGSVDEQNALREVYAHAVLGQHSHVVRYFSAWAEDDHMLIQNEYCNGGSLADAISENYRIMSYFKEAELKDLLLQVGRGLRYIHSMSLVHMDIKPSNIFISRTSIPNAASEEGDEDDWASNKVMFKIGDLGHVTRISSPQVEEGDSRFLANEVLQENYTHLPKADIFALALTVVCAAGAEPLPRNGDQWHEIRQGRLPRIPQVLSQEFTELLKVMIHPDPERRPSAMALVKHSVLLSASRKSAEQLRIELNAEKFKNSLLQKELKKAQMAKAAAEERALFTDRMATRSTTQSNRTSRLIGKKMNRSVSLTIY
# assay: WEE1-luciferase stabilization in HeLa cells – cell-based, WEE1K328M-luciferase, luminescence, powder samples, SAR follow-up (AID 434972)
# condition.info: HeLa WEE1K328M-luciferase stability, at 0.25 µM
The source made the active and inactive calls.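 Rule for the calls: active = inhibition of WEE1 degradation of at least 19%, seen as raised luminescence; inactive = the rest.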
Parameter call: string, one of label 1 = active, label 0 = inactive

A selection of reference data follows.
                            chemical_smiles    class
0  c1ccc(-n2cnc3c(NCc4nc5ccccc5[nH]4)nc(N4CCOCC4)nc32)cc1  label 0
1  OCCN1CCN(c2nc(NCc3nc4ccccc4[nH]3)c3ncn(-c4ccsc4)c3n2)CC1  label 0
2  N#Cc1ccc2nc(CNc3nc(N4CCOCC4)nc4c3ncn4-c3ccsc3)[nH]c2c1  label 1

Assay result, entry `c1ccc2cc3[nH]c(CNc4nc(N5CCOCC5)nc5c4ncn5-c4ccsc4)nc3cc2c1` — outcome?
label 1

Each compound tested received a call. Report the one for `Cc1ccnc(NC(=O)CCCOc2cc(=O)n(C)c3ccccc23)c1` .
label 0

Give the logged outcome of this assay for the following compound: `c1ccc2[nH]c(CNc3nc(N4CCOCC4)nc4c3ncn4-c3ccsc3)nc2c1`
label 1

GET /call?item= `c1cnc2ccc3[nH]c(CNc4nc(N5CCOCC5)nc5c4ncn5-c4ccsc4)nc3c2c1` returns the recorded outcome of this test.
label 1

Hi, do you know how `FC(F)(F)c1cc(Br)c2nc(CNc3nc(N4CCOCC4)nc4c3ncn4-c3ccsc3)[nH]c2c1` came out in this test?
label 0

For `O=[N+]([O-])c1cccc2[nH]c(CNc3nc(N4CCOCC4)nc4c3ncn4-c3ccsc3)nc12` , what call appears in the results of this test?
label 1

----------
# target.or.test.system: Wee1-like protein kinase (Homo sapiens)
# assay: WEE1-luciferase stabilization in HeLa cells – cell-based, WEE1K328M-luciferase, luminescence, powder samples, SAR follow-up (AID 434972)
# condition.info: HeLa WEE1K328M-luciferase stability, at 0.25 µM, hits give high values
measured.attribute: inhibition of WEE1 degradation (%)
Kindly answer with a numeric value in %, unit omitted.

>>> df
                            chemical_smiles              measured_attribute  unit_abbrev  obs_value
0  C[C@@H](Nc1nc(NCc2nc3ccccc3[nH]2)c2ncn(-c3ccsc3)c2n1)c1ccccc1  inhibition of WEE1 degradation            %        9.2

// returns inhibition of WEE1 degradation for `CC(C)n1cnc2c(NCc3nc4ccccc4[nH]3)nc(N3CCOCC3)nc21` with Wee1-like protein kinase (Homo sapiens); value = 4.1

Short answer on Wee1-like protein kinase (Homo sapiens) for `C=CCN(CC=C)c1nc(NCc2nc3ccccc3[nH]2)c2ncn(-c3ccsc3)c2n1` , inhibition of WEE1 degradation: 8.2

# `c1ccc2[nH]c(CNc3nc(NCCN4CCOCC4)nc4c3ncn4-c3ccsc3)nc2c1` with Wee1-like protein kinase (Homo sapiens): inhibition of WEE1 degradation is 8.1
